Below: a set of entries, each annotated with reported TGI.
Tested on: PC-3 prostate
method-summary: NCI tumour cell line growth inhibition, 48 h

>  <compound>
CCO/C=N/C1=C(C#N)C(c2ccc(OC)c(OC)c2)c2c(-c3ccccc3)nn(-c3ccccc3)c2O1 (stereo not drawn)

>  <TGI>
> 100 µM

$$$$
>  <compound>
COc1ccc(/C=C2\CC(C)CC3C2=NN(C(C)=O)C3c2ccc(OC)c(OC)c2)cc1OC (stereo not drawn)

>  <TGI>
> 100 µM

$$$$
>  <compound>
O=C(C(Cl)=C(Nc1ccccc1)Nc1ccccc1)C(Cl)Cl

>  <TGI>
> 100 µM

$$$$
>  <compound>
CCCCCCCCCCCCOC1C(C(COC2OC(C(O)CO)C3OC(C)(C)OC23)OC(=O)Nc2ccc([N+](=O)[O-])cc2)OC2OC(C)(C)OC21 (stereo not drawn)

>  <TGI>
5.63 µM

$$$$
>  <compound>
CC(C)(C)C(=O)C(C#N)C(=O)C(C)(C)C

>  <TGI>
> 100 µM

$$$$
>  <compound>
C/C(=C1/N=C(c2ccccc2)OC1=O)c1cccs1

>  <TGI>
> 100 µM

$$$$
>  <compound>
COC(=O)[C@H]1ON2O[C@H](OC3CCCC[C@@H]3c3ccccc3)C[C@@H]3CC[C@H]1[C@@]32C (stereo partly drawn)

>  <TGI>
> 100 µM

$$$$
>  <compound>
CCCCCCn1c(=N)n(CC(O)COc2cccc(C)c2)c2ccccc21 (stereo not drawn)

>  <TGI>
5.23 µM

$$$$
